Assay: qHTS profiling of the MIPE4 collection as inhibitors of Plasmodium falciparum (DD2) proliferation (AID 743345)
Conditions: P. falciparum Dd2 in erythrocytes, SYBR Green DNA, 72 h; at 28.5 µM (top of the series) unless noted
assay.endpoint: parasite growth remaining, % of DMSO control (lower = more inhibition) (%)

• CN(C)S(=O)(=O)c1ccc2c(c1)C(=Cc1cc3c([nH]1)CCCC3)C(=O)N2 = 22.5
• CCN1CCC(n2cc(CNc3cc(Cl)c4ncc(C#N)c(Nc5ccc(F)c(Cl)c5)c4c3)nn2)CC1 = 12.5
• COc1nc(C)cnc1NS(=O)(=O)c1cccnc1-c1ccc(-c2nnco2)cc1 = 100
• COC(=O)N1CCN(Cc2cccc(NC(=O)Nc3ccc(C)nc3)c2F)CC1 = 71.8
• Cn1c(=O)c(Oc2ccc(F)cc2F)cc2cnc(NC3CCOCC3)nc21 = 86.4
• Cc1ccc2c(c1)c1c(n2CCc2ccc(C)nc2)CCN(C)C1 = 55.3
